STUDY SYSTEM: T1, recombinant purified FRα (ECL assay calibrator) (human, UniProt P15328 25-234)
T1 construct: Calibrator of the ECL sandwich assays; also called FRα calibrator; FRα standard
T1 sequence (P15328 25-234 limits assumed): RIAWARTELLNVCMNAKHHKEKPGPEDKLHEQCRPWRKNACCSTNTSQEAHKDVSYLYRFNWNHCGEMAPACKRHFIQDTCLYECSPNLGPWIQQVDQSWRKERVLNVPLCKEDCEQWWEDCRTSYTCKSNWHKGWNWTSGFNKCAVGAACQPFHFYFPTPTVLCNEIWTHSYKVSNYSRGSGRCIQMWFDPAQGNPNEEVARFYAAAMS
TEST SUMMARY: ECL sandwich, FRα calibrator; capture 30G6.G6.G4.E9; binder = detection Ab
Recorded Specific signal at 500 pg/mL by entry
API note: the answer field is a bare number with no unit suffix.

Monoclonal antibody 6A2.G7 (antibody, mouse IgG1, V domains shown, Murine IgG1 kappa from hybridoma; also called ATCC PTA-123093) VH: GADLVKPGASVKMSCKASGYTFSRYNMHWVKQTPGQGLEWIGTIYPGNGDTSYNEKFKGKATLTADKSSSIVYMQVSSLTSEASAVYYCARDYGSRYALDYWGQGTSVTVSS VL: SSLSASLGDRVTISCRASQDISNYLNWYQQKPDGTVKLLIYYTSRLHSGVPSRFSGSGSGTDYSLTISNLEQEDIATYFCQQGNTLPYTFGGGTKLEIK : 2410
Monoclonal antibody 1C6.E12.G8 (antibody, mouse IgG1, V domains shown, Murine IgG1 kappa from hybridoma; also called ATCC PTA-123091) VH: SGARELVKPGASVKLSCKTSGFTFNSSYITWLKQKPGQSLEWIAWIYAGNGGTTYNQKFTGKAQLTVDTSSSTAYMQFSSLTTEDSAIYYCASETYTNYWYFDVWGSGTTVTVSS VL: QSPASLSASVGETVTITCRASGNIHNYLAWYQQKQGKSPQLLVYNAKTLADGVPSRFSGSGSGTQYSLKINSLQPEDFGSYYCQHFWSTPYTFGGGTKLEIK : 10900

Problem: For the binder Monoclonal antibody 1D2.D8.G10 (antibody, mouse IgG1, V domains shown, Murine IgG1 kappa from hybridoma; also called 1D2.D8.G0; ATCC PTA-123098) VH: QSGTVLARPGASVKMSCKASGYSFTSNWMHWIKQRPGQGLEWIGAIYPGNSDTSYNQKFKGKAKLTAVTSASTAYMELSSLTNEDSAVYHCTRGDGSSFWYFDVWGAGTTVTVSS VL: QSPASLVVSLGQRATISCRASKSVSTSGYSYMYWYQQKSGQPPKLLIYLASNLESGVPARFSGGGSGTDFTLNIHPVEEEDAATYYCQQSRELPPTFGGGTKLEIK , what Specific signal at 500 pg/mL is on record?
Result: 7910

The reported numbers originate from patent US20180148504A1.
